These data points were gathered from patent US20250382355A1.

# reported binning response; entries follow
molecular target: Biotinylated CoV2 Spike ECD PreS-AVI protein (SARS-CoV-2, UniProt P0DTC2 14-1208); assay: Octet binning; competitor 7A9
Please reply with the number alone, leaving off any unit.

# binning response lookup, item 3D4 VHH-Fc (Fc fusion) QVQLVESGGGLVQPGGSLRLSCAASGFTLDLNSIGWFRQAPGKEREGVSCISPSGSRMHYADSVKGRFTISRDNAKNTVYLQMNSLKPEDTAVYYCATGSPSYHYCSMYGLEYDSWGQGTQVTVPS
0.32

# binning response lookup, item 15H1 VHH-Fc (Fc fusion) QVQLVESGGGLAQAGGSLRLSCASSGLIFSGSAMGWFRQAPGKEREFVGVISWNGRTTYADSVKGRFTISRDDAVNMVWLQMNNLKPEDTAVYYCAADHLNYGSGDVNPRTYDYWGQGTQVTVSS
0.35
